Attribution: patent US20250179161A1

- target desc: T1, Amyloid Beta (Aβ) 1-42 (human)
- T1 construct: The same peptide was used in several aggregation states: fibrils, a heterogeneous aggregate mixture, and soluble oligomers or aggregates; also called Aβ42; Aβ 42
- T1 sequence (peptide, as listed by the source): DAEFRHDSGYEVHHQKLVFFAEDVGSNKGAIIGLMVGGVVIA
- run description: competition ELISA, plate coated with fibril Aβ42, competitor hBP-biotin; IC50 of test divided by IC50 of hBP
Please provide measured IC50 ratio (test:hBP) for the entries that follow.
The answer should be a number; do not append a unit.

query: Identify IC50 ratio (test:hBP) associated with the binder h2727 (antibody, V domains shown) VH: EVQLLESGGGLVQPGGSLRLSCAASGFTFSNYGMSWVRQAPGKGLEWVASIRSGSGRTYYSDNVKGRFTISRDNSKNTLYLQMNSLRAEDTAVYYCVRYDHYSGSSDYWGQGTLVTVSS VL: DVVMTQSPLSLPVTPGEPASISCKSSQSLLDYDGKTYLNWLLQKPGQSPQRLIYKVSNRDSGVPDRFSGSGSGTDFTLKISRVEAEDVGVYYCWQGTHFPRSFGQGTKVEIK
result: 3.06

query: Identify IC50 ratio (test:hBP) associated with the binder h2826 (antibody, V domains shown) VH: EVQLLESGGGLVQPGGSLRLSCAASGFTFSNFGMSWVRQAPGKGLEWVASVRSGSGRTYYSDNVKGRFTISRDNSKNTLYLQMNSLRAEDTAVYYCVRYDHYSGTSDYWGQGTLVTVSS VL: DVVMTQSPLSLPVTPGEPASISCKSSQSLLDYDGKTYLNWLLQKPGQSPQRLIYKVSNRDSGVPDRFSGSGSGTDFTLKISRVEAEDVGVYYCWQGTHFPRTFGQGTKVEIK
result: 1.1

query: Identify IC50 ratio (test:hBP) associated with the binder h2731 (antibody, V domains shown, Humanized IgG) VH: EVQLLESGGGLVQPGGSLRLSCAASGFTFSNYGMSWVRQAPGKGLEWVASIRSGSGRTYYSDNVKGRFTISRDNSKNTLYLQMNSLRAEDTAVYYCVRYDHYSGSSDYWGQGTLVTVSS VL: DVVMTQSPLSLPVTLGEPASISCKSSQSLLDYDGKTYLNWLLQKPGQSPQRLIYRVTNRDTGVPDRFSGSGSGTDFTLKISRVEAEDVGVYYCWQGTHFPRSFGQGTKVEIK
result: 0.61
